System Tested: Casein kinase II (Homo sapiens, UniProt P19784+P67870+P68400)
Sequence (P67870 whole entry): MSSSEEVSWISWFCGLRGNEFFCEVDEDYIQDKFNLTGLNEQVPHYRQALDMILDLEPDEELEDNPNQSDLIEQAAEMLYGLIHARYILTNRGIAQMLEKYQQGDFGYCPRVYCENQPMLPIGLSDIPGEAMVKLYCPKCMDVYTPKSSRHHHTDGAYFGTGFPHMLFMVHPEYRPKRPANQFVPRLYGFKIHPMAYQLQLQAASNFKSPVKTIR
Sequence (P68400 whole entry): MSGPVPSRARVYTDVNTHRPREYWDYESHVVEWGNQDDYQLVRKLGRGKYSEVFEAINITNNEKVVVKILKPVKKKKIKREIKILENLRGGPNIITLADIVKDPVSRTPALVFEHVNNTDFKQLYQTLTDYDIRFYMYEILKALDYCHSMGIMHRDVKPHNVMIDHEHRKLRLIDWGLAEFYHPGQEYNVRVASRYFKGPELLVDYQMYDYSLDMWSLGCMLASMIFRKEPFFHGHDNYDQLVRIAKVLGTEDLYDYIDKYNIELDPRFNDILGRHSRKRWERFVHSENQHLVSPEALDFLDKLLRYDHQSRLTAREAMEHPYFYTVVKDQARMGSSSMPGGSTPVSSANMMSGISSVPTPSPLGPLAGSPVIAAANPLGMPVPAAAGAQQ
Sequence (P19784 whole entry): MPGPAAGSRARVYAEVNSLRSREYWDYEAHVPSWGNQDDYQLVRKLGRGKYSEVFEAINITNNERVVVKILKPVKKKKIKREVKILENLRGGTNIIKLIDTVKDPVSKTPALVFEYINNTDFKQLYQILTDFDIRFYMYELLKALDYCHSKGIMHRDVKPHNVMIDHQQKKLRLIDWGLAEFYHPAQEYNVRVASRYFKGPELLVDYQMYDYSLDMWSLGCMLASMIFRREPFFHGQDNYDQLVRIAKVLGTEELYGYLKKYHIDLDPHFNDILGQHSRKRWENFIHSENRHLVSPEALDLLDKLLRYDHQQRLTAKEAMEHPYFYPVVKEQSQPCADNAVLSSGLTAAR
Method Summary: Inhibition of human recombinant CK2 assessed as inhibition of [gamma33P]ATP incorporation into substrate by […]
Field: IC50. Provide a value for each of the compounds that follow.
Record the value in nM, omitting the unit from your answer.

Q: Identify IC50 associated with the compound O=C(O)c1ccc2c(c1)nc(Nc1cccc(Oc3ccccc3)c1)c1ccncc12
Result: 19

Q: Respond only with IC50 recorded for NS(=O)(=O)c1cccc(Nc2nc3cc(C(=O)O)ccc3c3cnccc23)c1
Result: 43

Q: Supply reported IC50 belonging to this compound: O=C(O)c1ccc2c(c1)nc(Nc1cccc(Cl)c1)c1nccnc12
Result: 220

Q: Hello, please tell me recorded IC50 for this one: O=C(O)c1cc2sccc2c(Nc2cccc(Cl)c2)n1
Result: 32

Q: Tell me its IC50 given CC(C)OCCNc1nc2cc(C(=O)O)ccc2c2cnccc12 as the entry.
Result: 11

Q: Provide only the value of recorded IC50 for NC(=O)c1ccc2c(c1)nc(Nc1cccc(Cl)c1)c1ccncc12
Result: 417

----------
Method Summary: Clearance in Beagle dog at 1.9 mg/kg, iv and […] mg/kg, po by LC-MS/MS analysis
Type: ADME, organism-based, Canis lupus familiaris
Condition Context: in vivo
Measured Attribute: clearance
Answer with the value and then the unit.

Q: Report clearance for O=C(O)c1ccc2c(c1)nc(Nc1cccc(Cl)c1)c1ccncc12 [SILMITASERTIB]
Result: 11.7 mL/min/kg
